test system: Rattus norvegicus; test: Antiinflammatory activity against trinitrobenzenesulfonic acid-induced colitis in Wistar rat assessed as decrease in colonic myeloperoxidase activity at 100 mg/kg, po measured 24 hrs after last dose on day 11 by spectrometry; type: functional, organism-based; parameters: dose 100 mg/kg
Active and inactive are the calls of the source. The calls are words filed in the database; no cut-off is given here.

compoundStructure	targetUnderTest	Activity
O=C([O-])c1cc(/N=N/[C@H](Cc2ccccc2)C(=O)[O-])ccc1O.[Na+].[Na+]	Rattus norvegicus	Active
O=C([O-])c1cc(/N=N/[C@@H](Cc2c[nH]c3ccccc23)C(=O)[O-])ccc1O.[Na+].[Na+]	Rattus norvegicus	Active
O=C(O)c1cc(/N=N/c2ccc(S(=O)(=O)Nc3ccccn3)cc2)ccc1O	Rattus norvegicus	Active
O=C([O-])c1cc(/N=N/[C@@H](Cc2ccc(O)cc2)C(=O)[O-])ccc1O.[Na+].[Na+]	Rattus norvegicus	Active

====

test: Stability in rat feces assessed as half life at 250 ug/mL by UV spectrophotometry in presence of azo reductase; assay type: ADME, tissue-based
measurementName: half-life at 250 ug/mL

compoundStructure	measurementName	reportedValue
O=C([O-])c1cc(/N=N/[C@@H](Cc2ccc(O)cc2)C(=O)[O-])ccc1O.[Na+].[Na+]	half-life at 250 ug/mL	2.33 h
O=C([O-])c1cc(/N=N/[C@H](Cc2ccccc2)C(=O)[O-])ccc1O.[Na+].[Na+]	half-life at 250 ug/mL	2.67 h
O=C([O-])c1cc(/N=N/[C@@H](Cc2c[nH]c3ccccc23)C(=O)[O-])ccc1O.[Na+].[Na+]	half-life at 250 ug/mL	2.4 h

====

logD for assorted molecules
assay: Partition coefficient, log P in n-octanol/phosphate buffer of pH 7.4; format: physicochemical
measurementName: logD

compoundStructure	measurementName	reportedValue
O=C([O-])c1cc(/N=N/[C@@H](Cc2ccc(O)cc2)C(=O)[O-])ccc1O.[Na+].[Na+]	logD	0.35
O=C([O-])c1cc(/N=N/[C@@H](Cc2c[nH]c3ccccc23)C(=O)[O-])ccc1O.[Na+].[Na+]	logD	0.26
O=C([O-])c1cc(/N=N/[C@H](Cc2ccccc2)C(=O)[O-])ccc1O.[Na+].[Na+]	logD	0.3
